Origin of measurements: PubChem BioAssay

Listed below: inhibition values for each entry.
protocolNotes: endothelial E-selectin expression blockers – imaging, HUVEC, immunofluorescence, MLSMR starter and 10KST1 sets, primary screen (AID 487);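 note: signal is fraction of cell area covered by stained E-selectin grains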
conditions: HUVEC TNFalpha-induced E-selectin immunofluorescence imaging, at 2 µM; stronger effect = higher value
measuredAttribute: inhibition (%)

{"columns": ["molecule", "experimentalValue"],
 "data": [
  ["CCCn1c(SCC(=O)Nc2nnc(-c3ccccc3)s2)nnc1-c1ccccn1", 7],
  ["O=C(NC1(C(F)(F)F)NC(=O)N(Cc2ccco2)C1=O)c1cccnc1 (centres undefined)", -26.5],
  ["CC(C)(C)OC(=O)N1CC(O)CC1C(=O)OCC(=O)c1ccc(Cl)cc1 (centres undefined)", -22.9],
  ["O=C(CCNC(=O)Cn1ccc2ccccc2c1=O)NCCN1CCN(c2ccccc2F)CC1", 1.6],
  ["CC1C(c2ccccc2)N(C)CCC12NC(=O)NC2=O (centres undefined)", -43],
  ["CS(=O)(=O)N1CCN(CC2CC3C=CC2C3)CC1 (centres undefined)", -18.9],
  ["O=C(Nc1ccc(S(=O)(=O)NC2CCCC2)cc1)c1cnccn1", -54],
  ["O=C(NCCCN1CCOCC1)C1CC(=O)N(CCc2ccccc2)C1 (centres undefined)", -88],
  ["CCCOc1ccc(-c2nnn(CC(=O)Nc3cccc(C(=O)OC)c3)n2)cc1", -27.4],
  ["O=c1/c(=C/c2ccccn2)sc2n1CN(c1ccccc1)CN=2", 15.3],
  ["O=C(NCc1cccnc1)c1ccccc1Br", -18.8],
  ["N#CCc1nc(CSc2nc3ccccc3s2)cs1", -27.5],
  ["Cc1cc(C)c(NC(=O)C2CCCN2CCO)c(C)c1 (centres undefined)", -4.2],
  ["Cn1c(=O)[nH]c(=O)c2c1nc(N1CCNCC1)n2Cc1cccc2ccccc12", -83.1],
  ["Cc1ccc(C)c(S(=O)(=O)NCc2ccc(C(=O)N3CCN(C)CC3)cc2)c1", -101],
  ["CS(=O)(=O)Nc1ccc(S(=O)(=O)Nc2nccs2)cc1", -42.5],
  ["Cn1cnnc1Sc1nc2c(c(=O)n(C)c(=O)n2C)n1C", -50.7],
  ["COc1ccc(NC(=O)Cn2nnc(-c3ccccc3N)n2)cc1OC", -51.2],
  ["CCS(=O)(=O)c1nc2ccccc2n1CC(=O)N1CCOCC1", -85.4],
  ["COc1ccc2c(c1)c(CC(=O)O)c(C)n2C(=O)c1ccc(Cl)cc1", -69],
  ["CN(C)c1cccc(N=C2C=C(N3CCOCC3)CC(C)(C)C2)c1", -54.6],
  ["CCn1c(NCc2ccc(N(C)C)cc2)nc2ccccc21", -34.6],
  ["CNC(=O)CC(C(=O)O)c1ccc(OCC(C)C)cc1 (centres undefined)", 13.6],
  ["N#CCSCC(=O)Nc1ccc(F)cc1", 10.5]
]}

###

protocolNotes: blockers of RIG-like receptor reporter activation – cell-based, Sendai virus stimulus, luciferase, 10K MLSCN set, TLR/RLR signaling modifier project, primary screen (AID 602276);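 note: firefly luciferase from ISG56 promoter only with Renilla not read in this screen; 0% = Sendai virus plus DMSO and 100% = medium plus DMSO without virus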
conditions: HEK293 RL24 IRF3 luciferase reporter, at 10 µM, stronger effect = higher value
Listed below: inhibition values for each entry.
measuredAttribute: inhibition (%)

{"columns": ["molecule", "measuredAttribute", "readoutUnits", "experimentalValue"],
 "data": [
  ["CCCCC(=NCCO)C1=C(O)C(C(=O)OC)C(C)(C)CC1=O (centres undefined)", "inhibition", "%", 16.3],
  ["CC1=C(C#N)C(c2ccoc2)C(C(=O)OCc2ccccc2)=C(N)S1 (centres undefined)", "inhibition", "%", 9.67],
  ["CC(c1nnc(SCC(=O)Nc2sccc2C#N)n1-c1ccc(Cl)cc1)N(C)C (centres undefined)", "inhibition", "%", 17.6],
  ["CC(C)c1ccc(S(=O)(=O)N2CCN(C(=O)c3cccc(F)c3)CC2)cc1", "inhibition", "%", 14.9],
  ["O=C(Nc1ccc(Cl)c(Cl)c1)Nc1cc(C(=O)N2CCOCC2)ccc1N1CCCCC1", "inhibition", "%", 13.7],
  ["O=S(=O)(NCCc1ccccn1)c1cccs1", "inhibition", "%", 19.1],
  ["Cc1nc2cccc(C(=O)NC3CCCCC3)c2o1", "inhibition", "%", 10.4],
  ["CCC(C)c1ccc(NC(=O)C2CC2)cc1 (centres undefined)", "inhibition", "%", -20.4],
  ["Cc1ccc(-c2cc(C(F)F)nc(NCc3cccnc3)n2)cc1", "inhibition", "%", 7],
  ["C=CCn1c(=O)/c(=C/c2ccc(O)cc2)s/c1=C(/C#N)c1nnc2n1CCCCC2", "inhibition", "%", 17.7],
  ["CCSc1nc(-c2ccc(OC)cc2)ccc1C#N", "inhibition", "%", 9.36],
  ["COc1cc(C(N)=O)ccc1OCc1ccccc1", "inhibition", "%", -12.9],
  ["COC(=O)CCCCCNc1ccc(C(=O)OC)cc1N", "inhibition", "%", 6.15],
  ["Clc1ccc(SCCCCn2ccnc2)cc1", "inhibition", "%", -17.8],
  ["CCOc1cc(C2C(C(=O)c3ccccc3)=C(C(=O)OC)Nc3nnnn32)ccc1O (centres undefined)", "inhibition", "%", 0.723],
  ["Cc1ccc(Nc2cc(C)nc3nnnn23)cc1", "inhibition", "%", 7.18],
  ["Cc1noc(C)c1S(=O)(=O)NCCN1CCN(c2ccccc2)CC1", "inhibition", "%", 12.9],
  ["COc1ccccc1N1CCN(CCCNC(=O)Nc2ccccc2)CC1", "inhibition", "%", 15.3],
  ["CCCOc1ccc(-c2nnn(CC(=O)Nc3cccc(C(=O)OC)c3)n2)cc1", "inhibition", "%", 11.3],
  ["Cc1cc(-c2nc3ncccc3o2)ccc1N", "inhibition", "%", -34.7],
  ["CCOC(=O)C(CC)(CCC(=O)O)c1csc(N)n1 (centres undefined)", "inhibition", "%", 13.6],
  ["CCN(CC(=O)NC(=O)NCc1ccco1)Cc1nc2ccccc2c(=O)[nH]1", "inhibition", "%", 15.7],
  ["Nn1c(CSc2nc3ccccc3o2)nnc1CSc1nc2ccccc2o1", "inhibition", "%", 9.57],
  ["Cc1[nH]n2c(=O)cc(Cc3ccccc3)nc2c1C#N", "inhibition", "%", 15.1]
]}

###

targetOrTestSystem: Voltage-gated potassium channel subunit beta-2 (Rattus norvegicus) (UniProt P62483)
Sequence (P62483 whole entry, looked up): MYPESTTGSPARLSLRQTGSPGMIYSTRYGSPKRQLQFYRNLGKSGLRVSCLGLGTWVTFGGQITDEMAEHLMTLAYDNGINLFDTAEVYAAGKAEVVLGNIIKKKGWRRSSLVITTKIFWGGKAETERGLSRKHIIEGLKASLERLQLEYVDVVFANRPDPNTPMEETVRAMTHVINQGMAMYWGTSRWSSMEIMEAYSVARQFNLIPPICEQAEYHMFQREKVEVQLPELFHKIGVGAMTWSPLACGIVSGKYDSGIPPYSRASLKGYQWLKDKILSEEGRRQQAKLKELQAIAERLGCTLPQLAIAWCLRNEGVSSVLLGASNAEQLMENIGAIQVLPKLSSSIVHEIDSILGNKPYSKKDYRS
protocolNotes: inhibitors of rat Kvbeta2 reductase activity – biochemical, NADPH fluorescence, primary screen (AID 622);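 note: slope of raw intensity against log time taken from 70 to 1610 s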
conditions: recombinant KvBeta, 4-cyanobenzaldehyde reduction, at 10 µM, stronger effect = higher value

{"columns": ["molecule", "fluorescence slope"],
 "data": [
  ["CC[C@H]1CN2CCc3cc(OC)c(OC)cc3[C@@H]2C[C@@H]1C[C@H]1NCCc2cc(OC)c(OC)cc21", -0.553],
  ["Cc1cccc(N2CCN(S(=O)(=O)c3ccc4c(c3)CCC(=O)N4)CC2C)c1 (configuration not stated)", -0.453],
  ["O=C(c1ccc2c(c1)OCO2)N1CCNc2ccccc2C1", -0.559],
  ["Cc1ccc2[nH]c(=O)c(CN(CCCO)S(=O)(=O)c3c(C)ccc4nsnc34)cc2c1", -0.459],
  ["Oc1c(Cl)cc(Cl)cc1Sc1cc(Cl)cc(Cl)c1O", -0.478],
  ["CC(=O)OCC1=C(C(=O)O)N2C(=O)[C@@H](NC(=O)Cc3cccs3)[C@H]2SC1", -0.429],
  ["COC(=O)C1=C(C)Nc2nnnn2C1c1ccc(Cl)cc1Cl (configuration not stated)", -0.482],
  ["CN(c1ccccc1)S(=O)(=O)c1cc(C(=O)N2CCN(c3ccccn3)CC2)ccc1Cl", -0.475],
  ["Cc1nc(NC2=NCN(CCCN3CCOCC3)CN2)nc2c(C)cccc12", -0.571],
  ["O=C1CSC(c2cn(-c3ccccc3)nc2-c2cccs2)N1CC1CCCO1 (configuration not stated)", -0.534],
  ["CN1CCCC(OC(=O)COc2ccc(Br)cc2)C1 (configuration not stated)", -0.489],
  ["Cc1ccc(C(C)C)c(OCc2nnc(SCC(=O)Nc3ncc(C)s3)n2C)c1", -0.545],
  ["Cc1ccccc1CNS(=O)(=O)c1ccc2c(c1)OCCO2", -0.558],
  ["O=C1CS/C(=N\\C(=O)N2c3ccccc3Sc3ccccc32)N1", -0.523],
  ["CN1CCN(CC(=O)Nc2ccc(Cl)cc2Cl)CC1", -0.619],
  ["Cc1ccccc1NC(=O)c1ccccc1", -0.469],
  ["Cc1cc(C)cc(-n2ccnc2SCC(=O)Nc2ccc3c(c2)OCCO3)c1", -0.57],
  ["CCOC(=O)c1[nH]nc(-c2c(O)cc(C)cc2O)c1-c1csc(C)n1", -0.453],
  ["O=C(Nc1cccc(C(=O)N2CCOCC2)c1)c1cccnc1", -0.546],
  ["CCc1c(C)nc(N)n2c(SCC(=O)N3CCCc4ccccc43)nnc12", -0.454],
  ["O=C(c1ccco1)N1CCN(C(=O)C2CCN(S(=O)(=O)c3cccc4nsnc34)CC2)CC1", -0.468],
  ["COc1ccccc1-c1cn[nH]c(=S)n1", -0.576]
]}
